Target: UniProt P25090
Sequence (P25090 whole entry): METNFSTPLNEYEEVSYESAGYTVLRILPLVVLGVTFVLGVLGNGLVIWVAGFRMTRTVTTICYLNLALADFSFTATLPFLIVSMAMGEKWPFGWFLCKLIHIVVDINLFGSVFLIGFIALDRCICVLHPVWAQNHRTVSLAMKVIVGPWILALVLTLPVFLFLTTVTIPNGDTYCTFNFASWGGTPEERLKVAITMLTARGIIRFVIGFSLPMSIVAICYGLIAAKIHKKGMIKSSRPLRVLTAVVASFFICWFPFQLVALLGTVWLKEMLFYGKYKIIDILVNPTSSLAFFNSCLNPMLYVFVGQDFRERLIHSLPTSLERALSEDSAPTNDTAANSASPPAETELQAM
Experiment: FPR2 cyclic adenosine monophosphate (cAMP) assay
Conditions: CHO cells overexpressing human FPR2; forskolin 5 µM; inhibition of cAMP production; read-out: hFPR2 cAMP2 EC50
Protocol: N-formyl peptide receptors (FPRs) are a family of chemo attractant receptors that facilitate leukocyte response during inflammation. FPRs belong to the seven-transmembrane G protein-coupled receptor superfamily and are linked to inhibitory G-proteins (Gi). […] FPR2 and FPR1 Cyclic Adenosine Monophosphate (cAMP) Assays. […] The level of intracellular cAMP was determined using the HTRF HiRange cAMP assay reagent kit (Cisbio) according to manufacturer’s instruction. […]
pEC50: −log10 of the molar value.
Param threshold (8) applies to pEC50; output Condition met when value >= threshold, Condition not met when value < threshold.

compound	target_or_test_system	classification
COc1cc(N2C[C@@H]3C[C@H]2CN3C)nc(N2C(=O)[C@@H](NC(=O)c3ccc(Cl)cc3)[C@H](c3c(F)cc(OC)cc3F)[C@H]2C)c1	UniProt P25090	Condition met

Dear colleague, could you confirm whether COc1cc(F)c([C@@H]2CN(c3nc(NC4CCOC4)ccc3F)C(=O)[C@H]2NC(=O)c2ccc(OC(F)F)cc2)c(F)c1 (stereo partly drawn) [Example 122] has pEC50 at or above 8?
Condition met

Now consider COc1ccc([C@@H]2CN(c3cccn(CC(C)OC)c3=O)C(=O)[C@H]2NC(=O)c2ccc(OC(F)(F)F)cc2)c(F)c1 (stereo partly drawn) and answer again.
Condition met

Now consider `COc1cc(N2C[C@@H](c3c(F)cc(OC)cc3F)[C@H](NC(=O)c3ccc(OC(F)F)cc3)C2=O)nc(N2C[C@@H]3C[C@H]2CN3C)c1` and answer again.
Condition met

Now consider `COc1cc(F)c([C@@H]2CN(c3cc(P(C)(C)=O)ccn3)C(=O)[C@H]2NC(=O)c2ccc(OC(F)(F)F)cc2)c(F)c1` and answer again.
Condition not met
